System: Toxoplasma gondii
method-notes: Antimicrobial activity against Toxoplasma gondii RH containing alpha1-tubulin V4L mutation infected in HFF cells by plaque assay
Format: functional, organism-based
pIC50: −log10 of the molar value.
quantity-kind: pIC50

C=C(C)CN(CC)c1c([N+](=O)[O-])cc(C(F)(F)F)cc1[N+](=O)[O-] ... 4.87
CCCN(CCC)c1c([N+](=O)[O-])cc(S(=O)(=O)Nc2ccccc2)cc1[N+](=O)[O-] ... 4.58
CCCN(CC1CC1)c1c([N+](=O)[O-])cc(C(F)(F)F)cc1[N+](=O)[O-] ... 5.09
CCC(CC)Nc1c([N+](=O)[O-])cc(C)c(C)c1[N+](=O)[O-] ... 5.49
CCCCN(CC)c1c([N+](=O)[O-])cc(C(F)(F)F)cc1[N+](=O)[O-] ... 4.73
